- Test system: NCI-H226 lung
- Measurement Description: NCI-60 one-dose screen, 48 h (100 = growth as untreated, 0 = no growth, -100 = all killed)
- Test Context: 10 µM unless noted
The panel holds about 83,000 compounds, 20% with a hit somewhere; the sample as a whole holds those more often.
Threshold check on growth: strictly below 50% is yes; on or above 50% is no.

Is growth of CCCCN(CCCC)Cc1c(C)[nH]c2cc(OC)ccc2c1=O strictly below 50%?
no

Is growth of CCCCCCCCCCCCCC1=NCCN1CCO strictly below 50%?
no

Is growth of O=C(/C=C/c1ccc(B(O)O)cc1)/C=C/c1ccc(B(O)O)cc1 strictly below 50%?
no

Is growth of COc1cc(C2C(C(=O)c3cccs3)=C(O)C(=O)N2CCN2CCOCC2)cc(OC)c1OC (stereo not given) strictly below 50%?
no

Is growth of COc1cc(-c2cc(-c3nc4ccc(Cl)cc4[nH]3)[nH]n2)cc(OC)c1OC strictly below 50%?
yes

Is growth of COc1ccc(-c2c3c(nc4n[nH]c(-c5ccc(Cl)cc5)c24)-c2ccccc2C(=O)C3=O)cc1 strictly below 50%?
yes

Is growth of CCN(CC)c1ccc(/C=C/C2=[N+](C)c3ccccc3C2(C)C)cc1 strictly below 50%?
yes

Is growth of O=C(Nc1cccc2[nH]c(C(F)(F)F)nc12)c1ccc(Br)cc1F strictly below 50%?
yes

Is growth of O=C(COCc1c(-c2ccccc2)no[n+]1[O-])Nc1ccc(C(=O)/C=C/c2ccc3c(c2)OCO3)cc1 strictly below 50%?
no

Is growth of NCCN1CCN(c2nccc(-c3ccc4ccccc4c3)n2)CC1 strictly below 50%?
no

Is growth of CC(=O)OC1Oc2cc(C)c(C)cc2-c2oc(=O)c(-c3cc4ccc(N(C)C)cc4oc3=O)cc21 (stereo not given) strictly below 50%?
no

Is growth of CN1CCN(Cc2ccc(NC(=O)c3[nH]ncc3Nc3ccnc4ccsc34)cc2)CC1 strictly below 50%?
yes

Is growth of C/C(=C(/c1ccc(O)cc1)c1ccc(OCCN(C)C)cc1)c1ccccc1 strictly below 50%?
no

Is growth of CN1CCN(Cc2ccc(NC(=O)c3cncc(C#Cc4c(N)ncc5ccc(C#N)cc45)c3)cc2C(F)(F)F)CC1 strictly below 50%?
yes
